The reported numbers originate from patent US20120269834A1.

Tested Target: Fab fragment of the 2095-2 antibody
Measurement Context: calculated KD; 25° C
Ends that are not written are not given here. * marks the point of attachment. Biotin = O=C1N[C@H]2[C@H](CS[C@H]2CCCCC(=O)*)N1
Measurement Kind: Kd (nM)
Number only, in nM; omit the unit.

Check out these entries, answers already filled in.
>>> measured_number("Biotin-TSPPSPAPEALG [L234A]")
8340
>>> measured_number("Biotin-TSPPSPAPALLG [E233A]")
147

Param item = Biotin-TSPPSPAPELLG [Wt] ; retrieve measured Kd.
8.5
